- Assay details: primary screen for activators of insulin secretion dependent on glucose, INS-1E cells, GLuc reporter luminescence (AID 743287);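 note: 0% = median of neutral control wells and 100% = median of IBMX positive control wells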
- Condition summary: INS-1E GLuc reporter insulin secretion, 2-3 h, at 16.6 µM, active compounds read high
The campaign covered roughly 370,000 compounds. About 2,300 (0.62%) were called active. Shown is part of a subset that was picked to be rich in actives.
Readout: activation (%)
A number alone suffices; assume %.

Cc1ccc(S(=O)(=O)CCC(=O)OCc2ccccc2)cc1 = -1.88
COc1ccc(CCNC(=O)C(=O)NCc2ccccc2C)cc1OC = 30.4
CCOC(=O)c1c(NC(=O)C2CCN(S(=O)(=O)c3ccc(Cl)cc3)CC2)sc2c1CCCC2 = -4.47
CCOc1ccc(CCNC(=O)COC(=O)C2CCN(S(=O)(=O)c3ccccc3)CC2)cc1OCC = 22
COc1ccc(NC(=O)Nc2cccc3c2O[C@H](CN(C)Cc2ccc(Cl)c(Cl)c2)[C@H](C)CN([C@@H](C)CO)C3=O)cc1 = -19
COc1ccc(CCNC(=O)CCC(=O)NC2CCCCC2)cc1OC = -1.71
CC(=O)N(C)C[C@@H]1Oc2ccc(NC(=O)NC(C)C)cc2C(=O)N(C)C[C@H]1C = 9.69
C[C@H](CO)N1C[C@H](C)[C@@H](CN(C)C(=O)Nc2cc(F)ccc2F)Oc2cc(C#CC3CC3)ccc2S1(=O)=O = -8.09

# next compound below
Notebook: COc1ccc(CNC(=O)COC(=O)CCS(=O)(=O)c2ccc(C)cc2)cc1OC , activation read as 45.1

---

- Assay details: primary screen for activators of insulin secretion dependent on glucose, INS-1E cells, GLuc reporter luminescence (AID 743287)
- Condition summary: INS-1E GLuc reporter insulin secretion, 2-3 h, at 16.6 µM, active compounds read high
Out of some 370,000 compounds screened, about 2,300 (0.62%) were called active. Shown is part of a subset that was picked to be rich in actives.
Parameter activation: see the listing below.
// units = %; emit number, no label

// worked examples, activation included
NC(Cc1ccccc1)c1csc(Nc2cc(Oc3ccccc3)ncn2)n1 (stereo not drawn) = -24.7
C[C@@H]1CN([C@@H](C)CO)C(=O)CCCn2cc(nn2)CO[C@@H]1CN(C)S(=O)(=O)c1ccccc1C#N = 4.61

Now turn to the next molecule.
The molecule identified as COc1ccc(CN2[C@@H](CO)[C@@H]3c4ccccc4N(C(=O)Nc4ccccc4)C[C@@H]32)cc1 registered its activation at -18.4

---

- Assay details: primary screen for activators of insulin secretion dependent on glucose, INS-1E cells, GLuc reporter luminescence (AID 743287)
- Condition summary: INS-1E GLuc reporter insulin secretion, 2-3 h, at 16.6 µM, active compounds read high
Out of some 370,000 compounds screened, about 2,300 (0.62%) were called active. The list comes from a sample in which actives are over-represented; it also holds close analogues and randomly drawn compounds.
Readout: activation (%)
Give the value in % but do not write % after it.

CC(=O)Nc1ccc2c(c1)C(=O)N(C)[C@H]1CC[C@H](CC(=O)NCc3ccccc3Cl)O[C@H]1CO2 = -3.1

The measured activation associated with CC(=O)Nc1ccc(S(=O)(=O)N2CCC(C(=O)NC3CC3)CC2)cc1 reads 29.2

Lookup result for Cn1c(=O)oc2cc(S(=O)(=O)N3CCC(C(=O)Nc4ccc(OC(F)(F)F)cc4)CC3)ccc21 ; measured activation: 48.6

---

Below is a list of entries, each paired with its recorded activation value.
- Assay details: primary screen for activators of insulin secretion dependent on glucose, INS-1E cells, GLuc reporter luminescence (AID 743287)
- Condition summary: INS-1E GLuc reporter insulin secretion, 2-3 h, at 16.6 µM, active compounds read high
Out of some 370,000 compounds screened, about 2,300 (0.62%) were called active. For the sample, actives were picked, then their nearest neighbours and some compounds at random.
I only need the number, in %, no unit after it.

activation recorded for this molecule, Cc1ccc(-c2cc(=O)[nH]c(NCc3ccccc3)n2)cc1 , is 0.61

Reported activation of COc1cccc(-n2nc(C(=O)N3CCN(Cc4ccccc4)CC3)c3ccccc3c2=O)c1 : -2.64

Lab book: activation of O=c1c2ccccc2ncn1CCc1ccncc1 noted as 2.05

Lookup result for S=C(NCCCc1cnc[nH]1)NCCCN(Cc1ccc(Cl)c(Cl)c1)c1ccc(Br)cn1 ; measured activation: 17

activation for COCCCNC(=O)CNC(=O)c1nn(-c2ccc(OC)cc2)c(=O)c2ccccc12 is 5.37

activation for O=C(c1cnccn1)N1CC(=O)N2[C@H](C1)[C@@H](c1ccc(C3=CCCCC3)cc1)[C@@H]2CO is -9.9

Briefly, activation measured for CC[C@@H]1CC2=C(C(=O)OC(C)(C)O2)[C@@H](CC)O1 : -0.455

What the record says about C[C@H](CO)N1C[C@H](C)[C@@H](CN(C)CC2CC2)OCCCC[C@H](C)Oc2ccc(NC(=O)Cc3ccccc3)cc2C1=O : activation is 7.71

---

- Assay details: primary screen for activators of insulin secretion dependent on glucose, INS-1E cells, GLuc reporter luminescence (AID 743287);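 note: 0% = median of neutral control wells and 100% = median of IBMX positive control wells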
- Condition summary: INS-1E GLuc reporter insulin secretion, 2-3 h, at 16.6 µM
About 2,300 (0.62%) of roughly 370,000 compounds were called active.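 The calls were made as follows: active = lowest replicate activation of at least 40%, so every replicate reaches that level; inactive = the rest.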 This excerpt belongs to a sample that is enriched for actives.
Permitted responses: yes (1) (active), no (0) (inactive)

Solved cases (7 shown):
COc1ccc(CN(C)C[C@H]2OCCCC[C@H](C)Oc3ccc(NS(=O)(=O)c4ccc(C)cc4)cc3C(=O)N([C@@H](C)CO)C[C@H]2C)cc1 = no (0)
CC1CN(C(=S)Nc2ccc(Br)cc2Cl)CC(C)O1 (stereo not drawn) = no (0)
O=C(CCN1C(=O)C2C3C=CC(C3)C2C1=O)Nc1ccccc1F (stereo not drawn) = no (0)
COc1ccc(C#Cc2cnc3c(c2)C(=O)N([C@H](C)CO)C[C@@H](C)[C@H](CN(C)C(=O)Nc2cccc(OC)c2)O3)cc1 = no (0)
NC(=O)COc1ccccc1C(=O)NC12CC3CC(CC(C3)C1)C2 = no (0)
Cc1cc(Br)ccc1NC(=S)NC1CCCC1 = yes (1)
COc1ccccc1C(=O)NC(=O)COC(=O)C1CC1 = no (0)

Call for entry CCn1c(C)cc(=O)cc1-c1ccc(Cl)cc1 :
no (0)

---

Quick list: activation per entry.
- Assay details: primary screen for activators of insulin secretion dependent on glucose, INS-1E cells, GLuc reporter luminescence (AID 743287);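 note: 0% = median of neutral control wells and 100% = median of IBMX positive control wells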
- Condition summary: INS-1E GLuc reporter insulin secretion, 2-3 h, at 16.6 µM, active compounds read high
Among all 370,000 compounds or so, about 2,300 (0.62%) were called active. What follows is part of a selection rich in actives, with near analogues and random picks from the rest.
Please respond with the number in % and leave the unit unwritten.

Worked examples follow.
CN(C)C(=O)c1ccc(-c2ccc(C3[C@@H]4CN(C(=O)Nc5ccccc5)C[C@H]3N4)cc2)cc1 (stereo partly specified) = -5.33
CCCNC(=O)N1CC(=O)N2[C@H](CO)[C@H](c3ccc(C#Cc4cccc(OC)c4)cc3)[C@H]2C1 = -24.3
COc1ccc(CCNC(=O)CCn2c(=O)c3ccccc3n(CC(=O)NCC3CCCO3)c2=O)cc1OC (stereo unspecified) = 55.9
Cc1ccc(CNC(=O)c2ccccc2CCc2ccccc2)cc1 = -27.9
CCCN1Cc2cccc(C(=O)NCc3ccccc3)c2C1=O = 72.4

The molecule identified as Oc1c(Br)cc(/C=N/NC(=S)NCC2CCCO2)cc1Br (stereo unspecified) registered its activation at -34.5

---

- Assay details: primary screen for activators of insulin secretion dependent on glucose, INS-1E cells, GLuc reporter luminescence (AID 743287);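 note: 0% = median of neutral control wells and 100% = median of IBMX positive control wells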
- Condition summary: INS-1E GLuc reporter insulin secretion, 2-3 h, at 16.6 µM, active compounds read high
Out of some 370,000 compounds screened, about 2,300 (0.62%) were called active. For the sample, actives were picked, then their nearest neighbours and some compounds at random.
// reported activation for each item listed
Dear colleague, please return just the value in %, with no unit written.

Study these solved cases before continuing.
CC(C)C#Cc1ccc2c(c1)O[C@H](CN(C)CC1CCOCC1)[C@@H](C)CN([C@H](C)CO)S2(=O)=O = -18.8
CCC(=O)N1CCC2(CC1)CN(Cc1cc(F)ccc1F)[C@@H](CO)c1c2c2ccc(OC)cc2n1C = -0.065
COC(=O)C1=C(C)N(C)C(=S)NC1c1cc(OC)ccc1OC (centres undefined) = -51
CCCCc1nc(NCCN)c(C#N)c2c1CSC(C)(C)C2 = 44.2

The recorded activation for entry CC(C)(C)C(=O)c1c(N)[nH]c(C(=O)c2ccccc2)c1-c1ccc(F)cc1 equals 0.681

The value of activation measured for the compound C[C@H]1CN(C)C(=O)c2cccc(N(C)C)c2O[C@@H]1CN(C)C turned out to be -6.84

Entry COc1ccc2c3c([nH]c2c1)[C@H](CO)N(CC1CC1)CC31CN(C(=O)Nc2cccc(F)c2)C1 ; activation = -17.2

Lab note: Nc1[nH]c(C(=O)c2ccccc2)c(-c2ccncc2)c1C(=O)NCc1cccc2ccccc12 gave activation of 49.2

// sample C[C@@H]1CN([C@H](C)CO)C(=O)c2cc(NC(=O)NC3CCCCC3)ccc2O[C@@H]1CN(C)S(C)(=O)=O , its activation was -8.57

activation reported for this compound O=C(CC(c1ccccc1)c1cc(Cl)ccc1O)NCCN1CCOCC1 (centres undefined) : -15

Notebook: CCS(=O)(=O)Nc1ccc2c(c1)C(=O)N(C)[C@H]1CC[C@@H](CC(=O)N3CCCCC3)O[C@H]1CO2 , activation read as -5.88

Record COc1ccccc1CN1[C@H](CO)[C@H](c2ccccc2)C12CN(C(=O)c1ccccn1)C2 , field activation: -3.88

// sample CNC[C@H]1Oc2ccc(NS(=O)(=O)c3ccccc3)cc2CC(=O)N([C@H](C)CO)C[C@@H]1C , its activation was 3.16

get_value(item= C[C@H]1CN([C@@H](C)CO)C(=O)Cc2cc(NC(=O)NC3CCCCC3)ccc2O[C@H]1CN(C)S(=O)(=O)c1ccccc1 , readout=activation) returns -7.37
